- experiment: Toxicity in human SV589 cells assessed as cholesterol accumulation in lysosome at 10 uM incubated for 16 hrs by immunofluorescence based confocal microscopy
- Assay type: cell-based
- condition_summary: sv-589, 16 h
endpoint_label: Activity

Some compounds with recorded Activity:
Query: Activity; subject: "CCCC(=O)n1cnc2c1C(C)(C)C1=CC[C@H]3[C@@H]4CC[C@H]([C@H](C)CCC(=O)N5CCOCC5)[C@@]4(C)CC[C@@H]3[C@@]1(C)C2"
Non-Toxic

For the compound shown here, "CC(C)C(=O)n1cnc2c1C(C)(C)C1=C[C@H](O)[C@H]3[C@@H]4CC[C@H]([C@H](C)CCC(=O)N5CCOCC5)[C@@]4(C)CC[C@@H]3[C@@]1(C)C2" , give the reported Activity.
Toxic

Which Activity reading was recorded for the compound "Cc1nc2c(s1)C(C)(C)C1=CC[C@H]3[C@@H]4CC[C@H]([C@H](C)CCC(=O)O)[C@@]4(C)CC[C@@H]3[C@@]1(C)C2" ?
Non-Toxic

Given "C[C@H](CCC(=O)O)[C@H]1CC[C@H]2[C@@H]3CC=C4C(C)(C)c5nonc5C[C@]4(C)[C@H]3CC[C@]12C" , state its recorded Activity.
Non-Toxic

Would you mind telling me what Activity value was observed for "C[C@H](CCC(=O)O)[C@H]1CC[C@H]2[C@@H]3CC=C4C(C)(C)c5sc(N)nc5C[C@]4(C)[C@H]3CC[C@]12C" ?
Non-Toxic

Continuing:
Consider the compound "C=CCC(O)(CC=C)CCC[C@@H](C)[C@H]1CC[C@H]2[C@@H]3[C@@H](O)C=C4C(C)(C)[C@@H](O)CC[C@]4(C)[C@H]3CC[C@]12C.Cl" and give its measured Activity.
Toxic

I would be grateful if you could share the reported Activity for "C[C@H](CCC(=O)O)[C@H]1CC[C@H]2[C@@H]3CC=C4C(C)(C)c5[nH]ncc5C[C@]4(C)[C@H]3CC[C@]12C" .
Non-Toxic

What does the data say about its Activity? Entry: "CCC(O)(CC)CCCC[C@@H](C)[C@H]1CC[C@H]2[C@@H]3[C@@H](O)C=C4C(C)(C)[C@@H](O)CC[C@]4(C)[C@H]3CC[C@]12C"
Toxic

// returns reported Activity for input "C[C@H](CCCC(C)(C)O)[C@H]1CC[C@H]2[C@@H]3[C@@H](O)C=C4C(C)(C)[C@@H](O)CC[C@]4(C)[C@H]3CC[C@]12C"
Toxic

Record request: Activity value, item "C[C@H](CCC(=O)O)[C@H]1CC[C@H]2[C@@H]3CC=C4C(C)(C)c5c(cnn5-c5ccccc5)C[C@]4(C)[C@H]3CC[C@]12C"
Non-Toxic

Value lookup for Activity; key = "CCC(=O)n1cnc2c1C(C)(C)C1=CC[C@H]3[C@@H]4CC[C@H]([C@H](C)CCC(=O)N5CCOCC5)[C@@]4(C)CC[C@@H]3[C@@]1(C)C2"
Non-Toxic

* * *

- experiment: Toxicity in human SV589 cells assessed as cholesterol accumulation in lysosome at 10 uM incubated for 16 hrs by immunofluorescence based confocal microscopy
- Type: cell-based
- condition_summary: sv-589, 16 h
endpoint_label: Activity

Recorded Activity of "CCC(O)(CC)CC[C@@H](C)[C@H]1CC[C@H]2[C@@H]3CC=C4C(C)(C)c5c(ncn5C(C)=O)C[C@]4(C)[C@H]3CC[C@]12C" , please.
Non-Toxic

// returns reported Activity for input "CC(=O)n1cnc2c1C(C)(C)C1=C[C@H](O)[C@H]3[C@@H]4CC[C@H]([C@H](C)CCC(=O)N5CCOCC5)[C@@]4(C)CC[C@@H]3[C@@]1(C)C2"
Toxic

Param item = "CC(C)C(=O)n1cnc2c1C(C)(C)C1=CC[C@H]3[C@@H]4CC[C@H]([C@H](C)CCC(=O)N5CCOCC5)[C@@]4(C)CC[C@@H]3[C@@]1(C)C2" ; retrieve measured Activity.
Non-Toxic

Would you mind telling me what Activity value was observed for "C=CCC(O)(CC=C)CCC[C@@H](C)[C@H]1CC[C@H]2[C@@H]3[C@@H](O)C=C4C(C)(C)[C@@H](O)CC[C@]4(C)[C@H]3CC[C@]12C" ?
Toxic
